System: U2OS
method: Multiplex assay against U2OS
Assay type: toxicity, cell-based
stated conditions: human, 12 h, 1 µM, compound concentration 1 uM, replicate 1
observable: Population Membrane Permeable-Phenotype (%)
Give bare numbers, in %.

Known results for compounds:
CC1=C(C(=O)Nc2cc3cn[nH]c3cc2F)C(c2ccc(C(F)(F)F)cc2)CC(=O)N1 (centres undefined) = 6
O=c1cc(N2CCOCC2)oc2c(-c3cccc4c3sc3ccccc34)cccc12 = 2
CC(C)(C)NC[C@H](O)COc1nsnc1N1CCOCC1 = 4

// each listed compound needs a value for Population Membrane Permeable-Phenotype (%)
1. COc1ccc(-c2ccc3ncc4c(c3c2)n(-c2ccc(N3CCNCC3)c(C(F)(F)F)c2)c(=O)n4C)cn1.O=C(O)/C=C\C(=O)O
2. C[C@]12CC[C@@H]3c4ccc(O)cc4CC[C@H]3[C@@H]1CC[C@@H]2O
3. O=C(c1cc2c(cc1F)OC(c1ccc(F)cc1)(c1ccc(Cl)cc1Cl)O2)N1CCOCC1 (centres undefined)
4. Cc1nc(N2CC[C@H](O)C2)ncc1-c1cc(C(F)(F)F)cc2[nH]ncc12
5. C=CC(=O)Nc1cccc(Sc2nc(Nc3ccc(N4CCN(C)CC4)cc3)ncc2Cl)c1
6. O=c1[nH]c2ccccc2n1C1CCN(Cc2ccc(-c3[nH]c4cc5ncnc5cc4nc3-c3ccccc3)cc2)CC1

Outgoing:
58
10
7
6
100
37

These data points were gathered from ChEMBL document CHEMBL4689842.
